Numbers sourced from patent US4303785A.

Task for the reader: assign each of the following compounds its reported Antitumor Activity (T/C, prolongation rate of survival day).
- Tested on: L1210 leukemia
- protocol: Antitumor activity in BDF1 mice inoculated with L1210 leukemia cells (Table 6)
- Assay type: in vivo
- conditionContext: 0.3 mg./kg./day i.p., once daily for 10 days
Give bare numbers, in %.

>  <compound>
COc1cccc2c1C(=O)c1c(O)c3c(c(O)c1C2=O)C[C@@](O)(C(C)=O)C[C@@H]3O[C@H]1C[C@H](N)[C@H](OC2CCCCO2)[C@H](C)O1 (single isomer, unassigned; isomer a) [4'-O-PDa]

>  <number>
96

$$$$

Lab note: next compound to report on.
Input line: Find Antitumor Activity (T/C, prolongation rate of survival day) for COc1cccc2c1C(=O)c1c(O)c3c(c(O)c1C2=O)C[C@@](O)(C(=O)CO)C[C@@H]3O[C@H]1C[C@H](N)[C@H](OC2CCCCO2)[C@H](C)O1 (single isomer, unassigned; isomer b) [4'-O-PAb] on L1210 leukemia and write it down.
Output line: 160
